experimentalProtocol: Drug repurposing screens with cells derived from glioblastoma tumor samples (AID 1345199); note: % is set by controls: 0 for no effect and ±100 for the full control effect; nearly all actives have a fitted effect of over 40% in size
conditionDescription: GBM patient neurospheres viability, ATP luminescence, 48 h; at 21.2 µM (top of the series); tumour line B
Records with an inconclusive call do not appear. The source made the active and inactive calls. Calls come from the whole dose curve; as a rule, active = well fitted inhibition curve with a large enough effect; inconclusive = small, poorly fitted or top-dose-only effect; inactive = flat fitted curve, though single readings scatter.
assayReadout: activity, negative = cell killing

* Cc1ncc([N+](=O)[O-])n1CC(O)CCl (stereo not drawn) | -18% (inactive)
* CC(COc1ccccc1)NC(C)C(O)c1ccc(O)cc1 (stereo not drawn) | -2.68% (inactive)
* C[C@@H]1CC[C@@]2(OC1)O[C@H]1C[C@H]3[C@@H]4CC[C@H]5C[C@@H](O)CC[C@]5(C)[C@H]4CC(=O)[C@]3(C)[C@H]1[C@@H]2C | -15.7% (inactive)
* CN1CCOC(c2ccccc2)c2ccccc2C1 (stereo not drawn) | -10.4% (inactive)
* CCn1cc(C(=O)O)c(=O)c2cnc(N3CCNCC3)nc21 | -11.9% (inactive)
* CC(=O)c1ccc2c(c1)N(CCCN(C)C)c1ccccc1S2 | -19.6% (inactive)
* CCN(CC)C(C)CN1c2ccccc2Sc2ccccc21 (stereo not drawn) | -16.2% (inactive)
* Nc1ccc(S(=O)(=O)NC(=O)c2ccccc2)cc1 | -10.1% (inactive)

Data credit: PubChem BioAssay (NCATS)
